Numbers sourced from patent US11479551B2.

Task for the reader: assign each of the following compounds its reported IC50.
System: HCT116 parental cells
Assay: Proliferation assay (CellTiter-Glo, 10 days of treatment), HCT116 parental
Assay type: cell-based
Settings: Homo sapiens, HCT-116, 240 h
Form entry: value (nM) — number only.

Note to self: IC50 of Cc1cc(-c2c(-c3ccc4c(=O)[nH]nc(CN)c4c3)cnn2C)c(C#N)c2ccccc12 [Example 12-10] with HCT116 parental cells was 1330

Note to self: IC50 of CCc1cc(CC)c(C#N)c(-c2c(-c3ccc4c(=O)[nH]nc(CN)c4c3)cnn2C)c1 [Example 12-3] with HCT116 parental cells was 1690

Note to self: IC50 of Cn1ncc(-c2ccc3c(=O)[nH]nc(CN)c3c2)c1-c1ccc(Cl)c(Cl)c1C#N [Example 4-148] with HCT116 parental cells was 7750

Note to self: IC50 of Cc1c(-c2cnn(C)c2)ccc(-c2c(-c3ccc4c(=O)[nH]nc(CN)c4c3)cnn2C)c1C#N [Example 12-13] with HCT116 parental cells was 2000

Note to self: IC50 of Cn1ncc(-c2ccc3c(=O)[nH]nc(CN)c3c2)c1-c1c(C#N)cc2ccccc2c1Cl [Example 4-229] with HCT116 parental cells was 2860

###

Target: PRMT5/MEP50 complex (Homo sapiens (Human))
Assay: PRMT5:MEP50 HotSpot Assay (full-length histone H2A substrate, plus and minus MTA)
Format: biochemical
Conditions: IC50 + 2 μM MTA, in the presence of 2 μM MTA
Range-based classes on measured IC50: range 1: < 500 nM; range 2: ≥ 500 nM and < 1000 nM; range 3: ≥ 1000 nM

Which of the defined bands does the recorded IC50 of Cn1ncc(-c2cc(F)c3c(=O)[nH]nc(CN)c3c2)c1-c1cccc(Cl)c1C#N sit within?
range 3

Which of the defined bands does the recorded IC50 of [2H]C([2H])(N)c1n[nH]c(=O)c2ccc(-c3cnn(C)c3-c3ccc4ccccc4c3C#N)cc12 sit within?
range 1

Which of the defined bands does the recorded IC50 of Cc1cccc(-c2c(-c3ccc4c(=O)[nH]nc(CN)c4c3)cnn2C)c1 sit within?
range 2

Which of the defined bands does the recorded IC50 of Cn1ncc(-c2ccc3c(=O)[nH]nc(CN)c3c2)c1-c1cccc2ccncc12 sit within?
range 1

Which of the defined bands does the recorded IC50 of Cn1ncc(-c2ccc3c(=O)[nH]nc(CN)c3c2)c1-c1sc2ccccc2c1C#N sit within?
range 1

Which of the defined bands does the recorded IC50 of NCc1n[nH]c(=O)c2ccc(-c3cnc4[nH]ccc4c3)cc12 sit within?
range 3

Which of the defined bands does the recorded IC50 of Cn1ncc(-c2ccc3c(=O)[nH]nc(CN)c3c2)c1-c1cccc2c1COC2 sit within?
range 2

Which of the defined bands does the recorded IC50 of Cn1ncc(-c2ccc3c(=O)[nH]nc(CN)c3c2)c1-c1cc(Cl)c(Cl)cc1C#N sit within?
range 1

Which of the defined bands does the recorded IC50 of NCc1n[nH]c(=O)c2ccc(-c3cnc4ccc(-c5ccccc5)nn34)cc12 sit within?
range 2

Which of the defined bands does the recorded IC50 of Cn1ncc(-c2ccc3c(=O)[nH]nc(CN)c3c2)c1-c1cccc(Cl)c1C#N sit within?
range 1

Which of the defined bands does the recorded IC50 of CCc1cccc(-c2c(-c3ccc4c(=O)[nH]nc(CN)c4c3)cnn2C)c1C#N sit within?
range 2

Which of the defined bands does the recorded IC50 of Cn1ncc(-c2ccc3c(=O)[nH]nc(CN)c3c2)c1OCc1ccc(Cl)cc1 sit within?
range 3

Which of the defined bands does the recorded IC50 of Cc1cccc(-c2c(-c3ccc4c(=O)[nH]nc(CN)c4c3)cnn2C)c1C#N sit within?
range 2

Which of the defined bands does the recorded IC50 of CCOc1ccc2ncc(-c3ccc4c(=O)[nH]nc(CN)c4c3)n2c1 sit within?
range 3

Which of the defined bands does the recorded IC50 of Cn1ncc(-c2ccc3c(=O)[nH]nc(CN)c3c2)c1-c1ccc2ccccc2c1Cl sit within?
range 1

Which of the defined bands does the recorded IC50 of Cn1ncc(-c2ccc3c(=O)[nH]nc(CN)c3c2)c1-c1ccc2ccccc2c1C#N sit within?
range 1

Which of the defined bands does the recorded IC50 of CCOc1cccc(-c2c(-c3cc(F)c4c(=O)[nH]nc(CN)c4c3)cnn2C)c1C#N sit within?
range 3

Which of the defined bands does the recorded IC50 of Cc1cc(-c2cnn(C)c2-c2ccc3ccccc3c2C#N)cc2c(CN)n[nH]c(=O)c12 sit within?
range 1

Which of the defined bands does the recorded IC50 of Cn1ncc(-c2cc(Cl)c3c(=O)[nH]nc(CN)c3c2)c1-c1cccc(Cl)c1C#N sit within?
range 2

Which of the defined bands does the recorded IC50 of Cc1ccc(-c2c(-c3ccc4c(=O)[nH]nc(CN)c4c3)cnn2C)c(C#N)c1 sit within?
range 2

Which of the defined bands does the recorded IC50 of N#Cc1ccccc1-c1c(-c2ccc3c(=O)[nH]nc(CN)c3c2)cnn1CCO sit within?
range 3

Which of the defined bands does the recorded IC50 of CCCOc1cccc(-c2c(-c3ccc4c(=O)[nH]nc(CN)c4c3)cnn2C)c1C#N sit within?
range 3

Which of the defined bands does the recorded IC50 of COc1cnc2ccc(-c3c(-c4ccc5c(=O)[nH]nc(CN)c5c4)cnn3C)c(C#N)c2c1 sit within?
range 2

Which of the defined bands does the recorded IC50 of Cn1ncc(-c2ccc3c(=O)[nH]nc(CN)c3c2)c1-c1ccc(Cl)c(Cl)c1C#N sit within?
range 1

Which of the defined bands does the recorded IC50 of NCc1n[nH]c(=O)c2ccc(-c3cncc(C(O)c4ccccc4)c3)cc12 (stereo not drawn) sit within?
range 3

Which of the defined bands does the recorded IC50 of NCc1n[nH]c(=O)c2ccc(-c3cncc(C4CCCOC4)c3)cc12 (stereo not drawn) sit within?
range 3

Which of the defined bands does the recorded IC50 of CC(C)c1ccc(-c2c(-c3ccc4c(=O)[nH]nc(CN)c4c3)cnn2C)cc1 sit within?
range 2

Which of the defined bands does the recorded IC50 of N#Cc1ccccc1-c1c[nH]c2ncc(-c3ccc4c(=O)[nH]nc(CN)c4c3)cc12 sit within?
range 3

Which of the defined bands does the recorded IC50 of Cn1ncc(-c2ccc3c(=O)[nH]nc(CN)c3c2)c1-c1cc(Cl)cc(Cl)c1C#N sit within?
range 3

Which of the defined bands does the recorded IC50 of Cn1ncc(-c2c(-c3ccc4c(=O)[nH]nc(CN)c4c3)cnn2C)c1C#N sit within?
range 3

Which of the defined bands does the recorded IC50 of Cn1ncc(-c2cc(Cl)c3c(=O)[nH]nc(CN)c3c2)c1-c1ccc2ccccc2c1C#N sit within?
range 1

Which of the defined bands does the recorded IC50 of CCc1cccc(-c2c(-c3cc(F)c4c(=O)[nH]nc(CN)c4c3)cnn2C)c1C#N sit within?
range 2

Which of the defined bands does the recorded IC50 of Cc1cc(-c2c(-c3ccc4c(=O)[nH]nc(CN)c4c3)cnn2C)c(C#N)cc1Cl sit within?
range 3

###

Task for the reader: assign each of the following compounds its reported IC50.
Target: PRMT5/MEP50 complex (Homo sapiens (Human), UniProt O14744)
Sequence (O14744 2-637): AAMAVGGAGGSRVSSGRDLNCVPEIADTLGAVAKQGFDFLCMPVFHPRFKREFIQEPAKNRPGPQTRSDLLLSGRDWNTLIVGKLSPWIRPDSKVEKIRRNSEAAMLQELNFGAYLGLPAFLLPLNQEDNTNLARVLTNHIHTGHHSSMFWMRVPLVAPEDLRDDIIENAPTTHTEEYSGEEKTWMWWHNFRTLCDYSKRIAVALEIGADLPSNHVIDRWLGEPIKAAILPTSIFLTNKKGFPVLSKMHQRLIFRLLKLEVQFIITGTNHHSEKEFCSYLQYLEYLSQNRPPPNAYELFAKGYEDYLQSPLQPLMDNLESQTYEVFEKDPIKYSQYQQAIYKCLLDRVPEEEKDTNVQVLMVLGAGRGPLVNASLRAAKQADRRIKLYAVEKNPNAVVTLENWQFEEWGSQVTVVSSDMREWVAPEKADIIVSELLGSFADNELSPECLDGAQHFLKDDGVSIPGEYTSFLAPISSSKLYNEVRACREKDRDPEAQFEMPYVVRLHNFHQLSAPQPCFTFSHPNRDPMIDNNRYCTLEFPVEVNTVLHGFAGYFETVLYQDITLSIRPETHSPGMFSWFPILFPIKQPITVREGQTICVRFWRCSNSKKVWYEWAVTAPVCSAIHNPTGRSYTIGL
Sequence (Q9BQA1 2-342 partner): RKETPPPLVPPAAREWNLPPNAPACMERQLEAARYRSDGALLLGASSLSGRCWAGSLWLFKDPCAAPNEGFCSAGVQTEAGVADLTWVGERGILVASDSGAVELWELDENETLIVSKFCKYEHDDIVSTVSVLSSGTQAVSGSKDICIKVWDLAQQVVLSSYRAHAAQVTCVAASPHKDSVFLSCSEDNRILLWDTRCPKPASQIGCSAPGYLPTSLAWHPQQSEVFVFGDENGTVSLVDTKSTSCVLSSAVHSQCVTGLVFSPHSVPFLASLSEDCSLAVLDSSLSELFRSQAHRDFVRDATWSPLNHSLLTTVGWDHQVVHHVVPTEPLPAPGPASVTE
Experiment: PRMT5:MEP50 FlashPlate Assay (histone H4 peptide substrate, plus and minus MTA)
Format: biochemical
Conditions: IC50 + 2 μM MTA (nM), in the presence of 2 μM MTA
Form entry: value (nM) — number only.

The compound NCc1n[nH]c(=O)c2ccc(-c3cncc(Sc4ccccc4)c3)cc12 [Example 4-55] showed IC50 equal to 1.2

The compound NCc1n[nH]c(=O)c2ccc(-c3cncc4[nH]ccc34)cc12 [Example 3-55] showed IC50 equal to 83

The compound NCc1n[nH]c(=O)c2ccc(C3CCOC3)cc12 (racemic) [Example 5-2] showed IC50 equal to 57000

The compound NCc1n[nH]c(=O)c2ccc(-c3cncc(Oc4cccc(Cl)c4)c3)cc12 [Example 4-67] showed IC50 equal to 4

The compound CC(C)n1cc(-c2ccc3c(=O)[nH]nc(CN)c3c2)cn1 [Example 3-17] showed IC50 equal to 770

The compound Cc1ccccc1-c1ccc2c(=O)[nH]nc(CN)c2c1 [Example 3-60] showed IC50 equal to 8100

The compound NCc1n[nH]c(=O)c2ccc(-c3cncc(Oc4ccccn4)c3)cc12 [Example 4-63] showed IC50 equal to 58

The compound Cc1ccc(Oc2cncc(-c3ccc4c(=O)[nH]nc(CN)c4c3)c2)c(C)c1 [Example 4-73] showed IC50 equal to 0.6

The compound N#Cc1ccc(Oc2cncc(-c3ccc4c(=O)[nH]nc(CN)c4c3)c2)cc1 [Example 7-6] showed IC50 equal to 18

The compound Cn1ncc(-c2ccc3c(=O)[nH]nc(CN)c3c2)c1C#N [Example 4-31] showed IC50 equal to 410

The compound NCc1n[nH]c(=O)c2ccc(-c3cncc(Oc4ccccc4Cl)c3)cc12 [Example 4-71] showed IC50 equal to 4.9

The compound Cc1ccc(C#N)c(-c2c(-c3ccc4c(=O)[nH]nc(CN)c4c3)cnn2C)c1 [Example 4-105] showed IC50 equal to 1.8

The compound NCc1n[nH]c(=O)c2ccc(-c3cccnn3)cc12 [Example 4-1] showed IC50 equal to 45000

The compound CN(C)c1cncc(-c2ccc3c(=O)[nH]nc(CN)c3c2)c1 [Example 4-53] showed IC50 equal to 55

The compound Cc1c(-c2ccc3c(=O)[nH]nc(CN)c3c2)cncc1C1CC1 [Example 4-5] showed IC50 equal to 150

The compound NCc1n[nH]c(=O)c2ccc(-c3cncc(Oc4ccc(Cl)cc4)c3)cc12 [Example 7-4] showed IC50 equal to 5.6

The compound Cc1ncc(-c2ccc3c(=O)[nH]nc(CN)c3c2)n1CC#N [Example 4-109] showed IC50 equal to 120
